Provide the reported pIC50 of each item.
test.system: Orai1/STIM1 (Homo sapiens)
Construct: c-myc (C)
assay.method.text: Fluorescence-based assay of store-operated calcium entry in Orai1/STIM1 stable cells
condition.info: HEK-293 cells stably expressing human STIM1 and Orai1; 50% inhibition of Peak-Basal fluo-4 signal; 30 minutes compound incubation; read-out: Orai1/STIM1 (IC50, μmol)
pIC50: −log10 of the molar value.

Looking for the measured pIC50 of `Cn1nc(-c2ccccc2F)cc1-c1ccc(C(=O)Nc2ccncc2F)[se]1` , can you help?
≥ 6.00

Looking for the measured pIC50 of `Cn1nc(-c2ccco2)cc1-c1ccc(C(=O)Nc2ccccc2F)[se]1` , can you help?
≥ 6.00

Looking for the measured pIC50 of `Cn1nc(-c2nccs2)cc1-c1ccc(C(=O)Nc2ccccc2F)[se]1` , can you help?
≥ 6.00

Looking for the measured pIC50 of `Cc1cc2c(cc1-c1cnc(NC(=O)c3ccccc3F)[se]1)OC(F)(F)O2` , can you help?
≥ 6.00

Looking for the measured pIC50 of `O=C(Nc1ccncc1F)c1ccc(-c2cc(C(F)(F)F)ccc2Cl)[se]1` , can you help?
< 6.00

Looking for the measured pIC50 of `Cn1nc(-c2ccco2)cc1-c1ccc(C(=O)Nc2ccncc2F)[se]1` , can you help?
≥ 6.00

Looking for the measured pIC50 of `Cn1nc(-c2ccccc2F)cc1-c1ccc(C(=O)Nc2c(F)cccc2F)[se]1` , can you help?
≥ 6.00

Looking for the measured pIC50 of `Cc1ccccc1-c1cnc(NC(=O)c2c(F)cccc2F)[se]1` , can you help?
≥ 6.00

Looking for the measured pIC50 of `Cc1cscc1-c1cnc(NC(=O)c2ccccc2F)[se]1` , can you help?
< 6.00

Looking for the measured pIC50 of `O=C(Nc1ncc(-c2ccccc2C(F)(F)F)[se]1)c1ccccc1F` , can you help?
≥ 6.00

Looking for the measured pIC50 of `O=C(Nc1[se]cc(-c2ccc(Br)cc2)c1C(=O)O)c1cc2ccccc2o1` , can you help?
≥ 6.00

Looking for the measured pIC50 of `Cn1nc(-c2nccs2)cc1-c1ccc(C(=O)Nc2c(F)cccc2F)[se]1` , can you help?
≥ 6.00

* * *

test.system: Orai1/STIM1 (Homo sapiens, UniProt Q96D31)
Construct: c-myc (C)
Sequence (Q96D31 whole entry): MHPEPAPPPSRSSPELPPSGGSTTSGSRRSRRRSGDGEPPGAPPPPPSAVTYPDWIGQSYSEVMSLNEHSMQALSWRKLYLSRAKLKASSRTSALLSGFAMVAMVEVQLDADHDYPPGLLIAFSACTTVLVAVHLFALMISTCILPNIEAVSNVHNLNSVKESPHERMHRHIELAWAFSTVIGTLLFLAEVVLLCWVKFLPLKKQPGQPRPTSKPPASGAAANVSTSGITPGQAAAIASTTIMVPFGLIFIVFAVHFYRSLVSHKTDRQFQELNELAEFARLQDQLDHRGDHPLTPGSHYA
assay.method.text: Fluorescence-based assay of store-operated calcium entry in Orai1/STIM1 stable cells
condition.info: HEK-293 cells stably expressing human STIM1 and Orai1; 50% inhibition of Peak-Basal fluo-4 signal; 30 minutes compound incubation; read-out: Orai1/STIM1 (IC50, μmol)
Description: A. Fluorescence-Based Assay of Store-Operated Calcium Entry in Orail/STIM1 Stable Cells. […] The day prior to performing the assay Orail/STIM1 stable cells are plated in 50 μL of complete medium at 90-95% confluence in a 384 well plate. […] The initial baseline fluorescence signal is then measured with a FLIPR^384 (Molecular Devices) plate reader. Calcium entry is initiated by adding 5 μl of 10×CaCl2 (10 mM) in HBSS, and changes in cellular fluorescence are measured with the FLIPR^384 plate reader. […]
readout.name: IC50

Looking for the measured IC50 of `Cc1ccc(Cl)cc1-c1cnc(NC(=O)c2ccccc2F)[se]1` , can you help?
≤ 1 µM

Looking for the measured IC50 of `Cn1nc(C(F)(F)F)cc1-c1ccc(C(=O)Nc2c(F)cccc2F)[se]1` , can you help?
≤ 1 µM

Looking for the measured IC50 of `Cn1nc(-c2ccccc2F)cc1-c1ccc(C(=O)Nc2ccccc2F)[se]1` , can you help?
≤ 1 µM

Looking for the measured IC50 of `Cc1ccccc1-c1cnc(NC(=O)c2ccccc2Cl)[se]1` , can you help?
≤ 1 µM

Looking for the measured IC50 of `Cn1nc(C(F)(F)F)cc1-c1cnc(NC(=O)c2c(F)cccc2F)[se]1` , can you help?
≤ 1 µM

Looking for the measured IC50 of `CCn1nc(C(F)(F)F)cc1-c1cnc(NC(=O)c2ccccc2F)[se]1` , can you help?
≤ 1 µM

Looking for the measured IC50 of `Cn1nc(-c2nccs2)cc1-c1ccc(C(=O)Nc2ccncc2F)[se]1` , can you help?
≤ 1 µM

Looking for the measured IC50 of `Cn1nc(C(F)(F)F)cc1-c1cnc(NC(=O)c2ccccc2F)[se]1` , can you help?
≤ 1 µM

Looking for the measured IC50 of `O=C(Nc1[se]cc(-c2ccc(Br)cc2)c1C(=O)O)c1nc2ccccc2s1` , can you help?
> 1 µM

Looking for the measured IC50 of `Cn1nc(-c2ccccc2F)cc1-c1cnc(NC(=O)c2ccccc2F)[se]1` , can you help?
> 1 µM
